Entry source: patent US20120090502A1

Attribute: ε (molar absorption coefficient)
experiment: maximum absorption wavelength and molar absorption coefficient in dodecane; type: physicochemical

Take a look at these entries with their results.
[ask] Recorded ε (molar absorption coefficient) of CCCCCCCCCCc1ccc(N=Nc2ccc(N=Nc3ccc4c5c(cccc35)NC(C)(CCCC)N4)c3ccccc23)cc1 (racemic) , please.
[reply] 9.11 × 10^3

[ask] May I ask what ε (molar absorption coefficient) has been recorded for CCCCCCCCCCc1ccc(N=Nc2ccc(N=Nc3ccc4c5c(cccc35)NC(CC(C)C)(CC(C)C)N4)c3ccccc23)cc1 ?
[reply] 9.95 × 10^3

[ask] Please look up its ε (molar absorption coefficient): CCCCc1ccc(N=Nc2ccc(N=Nc3ccc4c5c(cccc35)NC(CC(C)C)(CC(C)C)N4)c3ccccc23)cc1
[reply] 3.41 × 10^3

[ask] Which ε (molar absorption coefficient) reading was recorded for the compound CCCCCCCCc1ccc(N=Nc2ccc(N=Nc3ccc4c5c(cccc35)NC(CC(C)C)(CC(C)C)N4)c3ccccc23)cc1 ?
[reply] 9.50 × 10^3

[ask] Report ε (molar absorption coefficient) for CCCCCCCCc1ccc(N=Nc2ccc(N=Nc3ccc4c5c(cccc35)NC(CC)(CC)N4)c3ccccc23)cc1 please.
[reply] 7.05 × 10^3

Attention now shifts to the item below.
[ask] Given the entry CCCCCCCCCCc1ccc(N=Nc2ccc(N=Nc3ccc4c5c(cccc35)NC(CC)(CC)N4)c3ccccc23)cc1 , report its measured ε (molar absorption coefficient).
[reply] 8.13 × 10^3

----------
experiment: oil ink performance test: viscosity and surface tension; type: physicochemical; details: oil ink: 1.0 g dye dispersed in 10 g dodecane, filtered 0.45 μm
value_kind: viscosity (cp)

[ask] I'd like to know its viscosity (cp). The compound in question is CCCCc1ccc(N=Nc2ccc(N=Nc3ccc4c5c(cccc35)NC(CC(C)C)(CC(C)C)N4)c3ccccc23)cc1
[reply] 2.21

[ask] Look up viscosity (cp): CCCCCCCCCCc1ccc(N=Nc2ccc(N=Nc3ccc4c5c(cccc35)NC(CC)(CC)N4)c3ccccc23)cc1
[reply] 2.35

[ask] Give its viscosity (cp) value. Item: CCCCCCCCc1ccc(N=Nc2ccc(N=Nc3ccc4c5c(cccc35)NC(CC)(CC)N4)c3ccccc23)cc1
[reply] 2.42

[ask] Record request: viscosity (cp) value, item CCCCCCCCCCc1ccc(N=Nc2ccc(N=Nc3ccc4c5c(cccc35)NC(C)(CCCC)N4)c3ccccc23)cc1 (racemic)
[reply] 2.42

[ask] Which measured viscosity (cp) value corresponds to CCCCCCCCc1ccc(N=Nc2ccc(N=Nc3ccc4c5c(cccc35)NC(CC(C)C)(CC(C)C)N4)c3ccccc23)cc1 ?
[reply] 2.33

[ask] Which viscosity (cp) is listed for CCCCCCCCCCc1ccc(N=Nc2ccc(N=Nc3ccc4c5c(cccc35)NC(CC(C)C)(CC(C)C)N4)c3ccccc23)cc1 ?
[reply] 2.55

----------
assay: oil ink tested by UV-Vis spectrophotometer; assay type: physicochemical; parameters: scale not given here; conditions: Figure of Merit = ε×C, oil ink in dodecane
value_kind: FoM

Please review the entries below; each comes with its answer.
[ask] Return reported FoM; argument: CCCCCCCCCCc1ccc(N=Nc2ccc(N=Nc3ccc4c5c(cccc35)NC(CC(C)C)(CC(C)C)N4)c3ccccc23)cc1
[reply] 136

[ask] Reported FoM, molecule CCCCCCCCCCc1ccc(N=Nc2ccc(N=Nc3ccc4c5c(cccc35)NC(C)(CCCC)N4)c3ccccc23)cc1 (racemic) : ____
[reply] 232

[a] CCCCCCCCc1ccc(N=Nc2ccc(N=Nc3ccc4c5c(cccc35)NC(CC(C)C)(CC(C)C)N4)c3ccccc23)cc1
[b] CCCCCCCCc1ccc(N=Nc2ccc(N=Nc3ccc4c5c(cccc35)NC(CC)(CC)N4)c3ccccc23)cc1
[c] CCCCc1ccc(N=Nc2ccc(N=Nc3ccc4c5c(cccc35)NC(CC(C)C)(CC(C)C)N4)c3ccccc23)cc1
[d] CCCCCCCCCCc1ccc(N=Nc2ccc(N=Nc3ccc4c5c(cccc35)NC(CC)(CC)N4)c3ccccc23)cc1
[ask] Number of molecules to sort: 4. Sort criterion: FoM, ascending. Form entry: labels listed in requested order.
[reply] c, a, b, d
